From: paper PMC5651997

# Test system: D. magna
# ASSAY NAME: 48 h acute toxicity test, single chemicals
# Assay type: in vivo, Daphnia magna
# CONDITION DESCRIPTION: read-out: LC50 (μM)(95% CI); neonates (<24 h old), 48 h, chemical individually
MEASUREMENT KIND: LC50 (µM)

molecule="Oc1cc(Cl)ccc1Oc1ccc(Cl)cc1Cl [triclosan]" measurement_kind=LC50 measured_value=1.08
molecule="CCOP(=S)(OCC)Oc1ccc([N+](=O)[O-])cc1 [parathion]" measurement_kind=LC50 measured_value=0.0122

----------
# System: D. magna
# ASSAY NAME: 48 h acute toxicity test, single chemicals
# Type: in vivo, Daphnia magna
# CONDITION DESCRIPTION: neonates (<24 h old), 48 h, chemical individually; (95% CI)
MEASUREMENT KIND: Hillslope

compound=Oc1cc(Cl)ccc1Oc1ccc(Cl)cc1Cl target="D. magna" measured_value="−4.365 (−6.091 to −3.083)"
compound=CC(C)(c1ccc(O)cc1)c1ccc(O)cc1 target="D. magna" measured_value="−6.891 (−10.34 to −3.438)"
compound=CCOP(=S)(OCC)Oc1nc(Cl)c(Cl)cc1Cl target="D. magna" measured_value="−2.498 (−3.795 to −1.496)"
compound=CCOP(=S)(OCC)Oc1ccc([N+](=O)[O-])cc1 target="D. magna" measured_value="−4.831 (−8.368 to −1.294)"
compound="O=S1OCC2C(CO1)C1(Cl)C(Cl)=C(Cl)C2(Cl)C1(Cl)Cl (centres unmarked) [endosulfan]" target="D. magna" measured_value="−8.310 (−10.52 to −6.098)"
